# measured_target: Lysosomal alpha-glucosidase (Homo sapiens)
# protocol_notes: qHTS Assay for Inhibitors and Activators of N370S glucocerebrosidase as a Potential Chaperone Treatment of Gaucher Disease: Alpha-Glucosidase Counterscreen
# stated_conditions: purified human alpha-glucosidase, 4MU-alpha-glucoside fluorescence
A collection of compounds and their measured max response
Field format: number, assumed %, no unit text.

structure_notation	max response (%)
CCOc1ccc(S(=O)(=O)N2CCN(c3nc(-c4ccccc4)nc4ccccc34)CC2)cc1	-10.9
CCOC(=O)c1ccc(S(=O)(=O)N2CCN(c3nc(-c4cccs4)nc4ccccc34)CC2)cc1	-8.25
O=S(=O)(c1ccc(Br)cc1)N1CCN(c2nc(-c3cccs3)nc3ccccc23)CC1	-4.2
O=S(=O)(c1ccccc1)N1CCN(c2nc(-c3cccs3)nc3ccccc23)CC1	-12.9
O=S(=O)(c1ccccc1Br)N1CCN(c2nc(-c3ccccc3)nc3ccccc23)CC1	-18.6

Query: I am curious: what max response value has been reported for O=S(=O)(c1ccccc1C(F)(F)F)N1CCN(c2nc(-c3ccccc3)nc3ccccc23)CC1 ?
Result: -7.6

Query: Same again, this time with S=C(NCCCc1cnc[nH]1)NCCCN(Cc1ccc(Cl)c(Cl)c1)c1ccc(Br)cn1
Result: -4.15

Query: Same again, this time with Cc1ccc(S(=O)(=O)N2CCN(c3nc(-c4cccs4)nc4ccccc34)CC2)cc1
Result: -8.42

Query: Same again, this time with O=[N+]([O-])c1ccccc1S(=O)(=O)N1CCN(c2nc(-c3cccs3)nc3ccccc23)CC1
Result: -3.63

====

# measured_target: Lysosomal alpha-glucosidase (Homo sapiens) (UniProt P10253)
# protocol_notes: qHTS Assay for Inhibitors and Activators of N370S glucocerebrosidase as a Potential Chaperone Treatment of Gaucher Disease: Alpha-Glucosidase Counterscreen
# stated_conditions: purified human alpha-glucosidase, 4MU-alpha-glucoside fluorescence
A collection of compounds and their measured max response
Field format: number, assumed %, no unit text.

Record excerpt, results attached:
structure_notation	measured_target	unit_string	max response
Cc1ccc(-c2nc(N3CCN(S(=O)(=O)c4ccc(F)cc4)CC3)c3ccc(Cl)cc3n2)cc1	Lysosomal alpha-glucosidase (Homo sapiens) (UniProt P10253)	%	-14.5
O=S(=O)(c1ccccc1Cl)N1CCN(c2nc(-c3ccccc3)nc3ccccc23)CC1	Lysosomal alpha-glucosidase (Homo sapiens) (UniProt P10253)	%	-4.34
O=S(=O)(c1ccccc1Cl)N1CCN(c2nc(-c3cccs3)nc3ccccc23)CC1	Lysosomal alpha-glucosidase (Homo sapiens) (UniProt P10253)	%	-12.9
CC(C)(C)c1ccc(S(=O)(=O)N2CCN(c3nc(-c4ccccc4)nc4ccccc34)CC2)cc1	Lysosomal alpha-glucosidase (Homo sapiens) (UniProt P10253)	%	-7.51
O=S(=O)(c1ccc2c(c1)OCCO2)N1CCN(c2nc(-c3cccs3)nc3ccccc23)CC1	Lysosomal alpha-glucosidase (Homo sapiens) (UniProt P10253)	%	-3.67

Moving on to the next compound.
Query: I am curious: what max response value has been reported for N#Cc1ccc(S(=O)(=O)N2CCN(c3nc(-c4cccs4)nc4ccccc34)CC2)cc1 ?
Result: -5.53

====

# measured_target: Lysosomal alpha-glucosidase (Homo sapiens)
# protocol_notes: qHTS Assay for Inhibitors and Activators of N370S glucocerebrosidase as a Potential Chaperone Treatment of Gaucher Disease: Alpha-Glucosidase Counterscreen
# stated_conditions: purified human alpha-glucosidase, 4MU-alpha-glucoside fluorescence
property_measured: max response (%)
Field format: number, assumed %, no unit text.

Record excerpt, results attached:
structure_notation	max response, %
CCOc1ccc(S(=O)(=O)N2CCN(c3nc(-c4ccccc4)nc4ccccc34)CC2)cc1OCC	-7.31
COc1ccc(-c2nc(N3CCN(S(=O)(=O)c4ccccc4)CC3)c3ccccc3n2)cc1	-7.46

Query: I am curious: what max response value has been reported for O=S(=O)(c1ccc(Cl)cc1)N1CCN(c2nc(-c3cccc(Br)c3)nc3ccccc23)CC1 ?
Result: -4.16

Query: Same again, this time with O=S(=O)(c1ccc(F)cc1)N1CCN(c2nc(-c3ccccc3)nc3ccccc23)CC1
Result: -3.53

Query: Same again, this time with O=S(=O)(c1ccc(F)cc1)N1CCN(c2nc(-c3cccs3)nc3cc(Cl)ccc23)CC1
Result: -15.8
